- system: 12-lipoxygenase (Sus scrofa)
- Sequence (P16469 whole entry): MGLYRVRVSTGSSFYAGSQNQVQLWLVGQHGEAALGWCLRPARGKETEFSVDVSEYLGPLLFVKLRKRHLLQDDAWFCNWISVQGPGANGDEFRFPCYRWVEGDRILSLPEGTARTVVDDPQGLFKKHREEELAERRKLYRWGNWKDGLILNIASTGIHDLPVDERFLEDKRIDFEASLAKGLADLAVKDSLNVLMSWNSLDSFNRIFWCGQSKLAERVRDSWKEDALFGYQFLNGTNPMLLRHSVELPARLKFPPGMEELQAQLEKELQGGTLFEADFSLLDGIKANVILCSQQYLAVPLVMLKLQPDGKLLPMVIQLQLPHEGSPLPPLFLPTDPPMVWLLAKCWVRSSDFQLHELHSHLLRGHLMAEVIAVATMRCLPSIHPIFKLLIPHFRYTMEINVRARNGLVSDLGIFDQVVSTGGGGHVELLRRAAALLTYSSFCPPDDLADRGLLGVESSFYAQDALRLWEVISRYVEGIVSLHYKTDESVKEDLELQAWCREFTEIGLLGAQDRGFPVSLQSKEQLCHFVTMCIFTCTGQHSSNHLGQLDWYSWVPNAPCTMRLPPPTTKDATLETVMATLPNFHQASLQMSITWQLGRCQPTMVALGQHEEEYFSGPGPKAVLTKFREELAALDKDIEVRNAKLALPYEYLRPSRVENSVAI
pIC50: −log10 of the molar value.
Assign fulfilled whenever pIC50 does not fall below 6; assign not fulfilled whenever it does.

>>> category("CCCCCCC#CCOCc1ccc(CCC(=O)O)cc1")
"not fulfilled"
>>> category("CCCCCCCCCC/C=C/COCc1ccc(CCC(=O)O)cc1")
"fulfilled"

q: Does pIC50 meet or surpass 6 for CCCCCCCCCCC#CCOCc1ccc(CCC(=O)O)cc1 ?
a: fulfilled

q: Does pIC50 meet or surpass 6 for CCCCCCCCCCC=C=CCOCc1ccc(CCC(=O)O)cc1 [Compound 34] ?
a: fulfilled

q: Does pIC50 meet or surpass 6 for CCCCCCCCCCC=C=CCOCc1ccc(CCC(=O)O)cc1 [Compound 35, (R)-3-[4-(2,3-Tetradecadienyloxymethyl)] ?
a: fulfilled
